biological target: mouse Otop1 (mOtop1) channels (Mus musculus); assay: whole-cell patch-clamp, peak currents: current density and "on-cell" analysis; type: cell-based
observable: pEC50
Reminder that pEC50 means the negative base-10 logarithm of the concentration expressed in mol/L.

(Q) Could you tell me which pEC50 is on file for Cc1ccc(C(=O)Nc2ccc3ccccc3c2)o1 [MFaN, 5-methyl-N-2-naphthyl-2-furamide] ?
(A) 5.04

* * *

biological target: mouse Otop1 (mOtop1) channels (Mus musculus, UniProt Q80VM9); format: cell-based; conditions: read-out: IC50, inhibition of mOtop1 currents; currents activated by pH 5.5 with 10 μM MFaN; n = 5-6
Sequence (Q80VM9 whole entry): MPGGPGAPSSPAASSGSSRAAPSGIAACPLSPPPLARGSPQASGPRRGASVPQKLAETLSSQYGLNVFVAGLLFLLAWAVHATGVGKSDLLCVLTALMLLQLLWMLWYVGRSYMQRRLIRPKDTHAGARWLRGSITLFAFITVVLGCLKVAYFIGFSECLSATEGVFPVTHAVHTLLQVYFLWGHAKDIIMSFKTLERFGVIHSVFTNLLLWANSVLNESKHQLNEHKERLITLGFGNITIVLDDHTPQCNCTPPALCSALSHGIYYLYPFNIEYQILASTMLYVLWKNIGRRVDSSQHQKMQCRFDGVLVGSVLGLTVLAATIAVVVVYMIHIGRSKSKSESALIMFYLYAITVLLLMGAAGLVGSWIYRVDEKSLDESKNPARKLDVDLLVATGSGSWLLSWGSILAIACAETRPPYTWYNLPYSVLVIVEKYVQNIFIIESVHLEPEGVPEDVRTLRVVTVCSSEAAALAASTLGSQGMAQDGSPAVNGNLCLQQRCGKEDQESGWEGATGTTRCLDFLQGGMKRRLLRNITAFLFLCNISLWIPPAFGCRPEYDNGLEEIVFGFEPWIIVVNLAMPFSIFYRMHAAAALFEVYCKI
observable: pIC50
Reminder that pIC50 means the negative base-10 logarithm of the concentration expressed in mol/L.

(Q) Could you tell me which pIC50 is on file for [Zn+2] ?
(A) 4.24

* * *

molecular target: mouse Otop1 (mOtop1) channels (Mus musculus); assay: whole-cell patch-clamp, "on-current" analysis of acid/alkali-evoked currents; type: cell-based; details: EC50, potentiation of mOtop1 currents, pH 6.0; on-current analysis; n = 5
observable: pEC50
Reminder that pEC50 means the negative base-10 logarithm of the concentration expressed in mol/L.

(Q) Could you tell me which pEC50 is on file for Cc1ccc(C(=O)Nc2ccc3ccccc3c2)o1 [MFaN, 5-methyl-N-2-naphthyl-2-furamide] ?
(A) 5.05

* * *

Measured EC50 by item
target: mouse Otop1 (mOtop1) channels (Mus musculus); assay: whole-cell patch-clamp, "on-current" analysis of acid/alkali-evoked currents; type: cell-based; details: EC50s, enhancing acid-evoked Otop1 currents, summary statement

For orientation, consider the following solved cases.
molecule: CC(C)c1noc2ncc(C(=O)c3ccccc3O)cc12
test system: mouse Otop1 (mOtop1) channels (Mus musculus)
EC50: ~10 µM

molecule: Cc1ccc(C(=O)Nc2ccc3ccccc3c2)o1 [MFaN, 5-methyl-N-2-naphthyl-2-furamide]
test system: mouse Otop1 (mOtop1) channels (Mus musculus)
EC50: ~10 µM

Now consider a different molecule.
(Q) Give mouse Otop1 (mOtop1) channels (Mus musculus) EC50 for Cc1cc(NC(=O)c2ccc(Br)o2)ccc1NC(=O)c1ccco1
(A) ~10 µM
